- test target: Nuclear factor NF-kappa-B p105 subunit (Homo sapiens)
- method summary: small molecules binding NF-kappa-B p105/p50 – biochemical, small molecule microarray, anti-His fluorescence, primary screen (AID 624139);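 further: probe protein is his-tagged human p50 processed subunit at 1 µg/ml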
Among all 17,000 compounds or so, about 220 (1.3%) were called active.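 How the source made its calls: active means spot fluorescence over background significantly raised, with a chance value under 7% in all four replicate spots of the compound; inactive means the rest.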 The sample as a whole holds a higher share of actives than the screen did.
Allowed answers: True for active, False for inactive

- compound: "C[C@H](CO)N1C[C@H](C)[C@@H](CN(C)C)Oc2ccc(N(C)C)cc2C1=O"
  test target: "Nuclear factor NF-kappa-B p105 subunit (Homo sapiens)"
  cat: "False"
- compound: "CC(C)NC(=O)N(C)C[C@@H]1OCCCC[C@@H](C)Oc2ccc(NC(=O)Nc3ccccc3)cc2C(=O)N([C@H](C)CO)C[C@@H]1C"
  test target: "Nuclear factor NF-kappa-B p105 subunit (Homo sapiens)"
  cat: "False"
- compound: "C[C@H](CO)N1C[C@H](C)[C@@H](CN(C)C(=O)Nc2ccccc2)Oc2ccc(N(C)C)cc2C1=O"
  test target: "Nuclear factor NF-kappa-B p105 subunit (Homo sapiens)"
  cat: "False"
- compound: "COc1ccc(C#Cc2ccc3c(c2)[C@]2(C(=O)N3)[C@H](c3ccccc3OCCO)N3[C@H](c4ccccc4)[C@H](c4ccccc4)OC(=O)[C@H]3[C@@H]2C(=O)N2CCCCCCC2)cc1"
  test target: "Nuclear factor NF-kappa-B p105 subunit (Homo sapiens)"
  cat: "True"
- compound: "COc1cc(C)c(C(=O)Oc2cc(C)c(C(=O)Oc3cc(C)c(C(=O)NC(C)C(=O)O)c(O)c3)c(O[C@@H]3O[C@H](CO)[C@@H](O)[C@H](O)[C@H]3OC(C)=O)c2)c(OC)c1 (stereo not given in full)"
  test target: "Nuclear factor NF-kappa-B p105 subunit (Homo sapiens)"
  cat: "False"
- compound: "C[C@@H]1CN([C@@H](C)CO)C(=O)c2cc(NC(=O)C3CCCCC3)ccc2O[C@@H](C)CCCCO[C@@H]1CN(C)C(=O)Nc1ccccc1"
  test target: "Nuclear factor NF-kappa-B p105 subunit (Homo sapiens)"
  cat: "False"

Task: Hi team, can someone confirm the assay call for COc1ccc(C#Cc2ccc3c(c2)[C@]2(C(=O)N3)[C@H](C(=O)N3CCCCCCC3)[C@H]3C(=O)O[C@H](c4ccccc4)[C@H](c4ccccc4)N3[C@@H]2c2ccc(O)cc2)cc1 ?
Output: False

Task: Just curious, what result did C[C@@H]1CCCCO[C@@H](CN(C)C(=O)c2ccccc2)[C@H](C)CN([C@@H](C)CO)C(=O)c2cc(NS(C)(=O)=O)ccc2O1 get here?
Output: False

Task: Can you look up the reported call for COCCCNC(=O)[C@@]1(C)c2ccccc2C(=O)N(Cc2ccc(OC(F)(F)F)cc2)[C@H]1c1ccc(CO)cc1 for me?
Output: False

Task: Entry S=C(NCc1ccco1)N1CCN(c2ncccn2)CC1 : call = ?
Output: False

Task: Identify the outcome logged in this assay for the compound shown: C[C@H](CO)N1C[C@H](C)[C@@H](CN(C)Cc2ccc3c(c2)OCO3)Oc2ccc(NC(=O)Nc3ccc(F)cc3)cc2C1=O
Output: False

These measurements were taken from PubChem BioAssay AID624139.
